Target: UniProt P08908
Sequence (P08908 whole entry): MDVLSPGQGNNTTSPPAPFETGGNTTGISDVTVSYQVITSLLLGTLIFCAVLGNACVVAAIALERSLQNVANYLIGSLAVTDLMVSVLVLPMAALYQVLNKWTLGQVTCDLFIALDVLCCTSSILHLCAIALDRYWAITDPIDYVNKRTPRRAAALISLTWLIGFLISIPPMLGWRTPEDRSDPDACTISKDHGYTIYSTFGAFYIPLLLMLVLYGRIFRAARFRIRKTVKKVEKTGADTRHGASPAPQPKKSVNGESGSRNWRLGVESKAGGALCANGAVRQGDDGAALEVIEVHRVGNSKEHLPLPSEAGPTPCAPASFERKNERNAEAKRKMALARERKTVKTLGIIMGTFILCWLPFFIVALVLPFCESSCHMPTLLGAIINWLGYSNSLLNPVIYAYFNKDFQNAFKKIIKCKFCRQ
Format: functional, cell-based
# AC50 annotations

Value of measured AC50 for the entry C[C@H]1COc2c(C3(N)CC3)c(F)cc3c(=O)c(C(=O)O)cn1c23 : > 10 µM

---

# AC50 annotations
Target: Glucocorticoid receptor (Homo sapiens); note: assay procedure not described here
Sequence (P04150 whole entry): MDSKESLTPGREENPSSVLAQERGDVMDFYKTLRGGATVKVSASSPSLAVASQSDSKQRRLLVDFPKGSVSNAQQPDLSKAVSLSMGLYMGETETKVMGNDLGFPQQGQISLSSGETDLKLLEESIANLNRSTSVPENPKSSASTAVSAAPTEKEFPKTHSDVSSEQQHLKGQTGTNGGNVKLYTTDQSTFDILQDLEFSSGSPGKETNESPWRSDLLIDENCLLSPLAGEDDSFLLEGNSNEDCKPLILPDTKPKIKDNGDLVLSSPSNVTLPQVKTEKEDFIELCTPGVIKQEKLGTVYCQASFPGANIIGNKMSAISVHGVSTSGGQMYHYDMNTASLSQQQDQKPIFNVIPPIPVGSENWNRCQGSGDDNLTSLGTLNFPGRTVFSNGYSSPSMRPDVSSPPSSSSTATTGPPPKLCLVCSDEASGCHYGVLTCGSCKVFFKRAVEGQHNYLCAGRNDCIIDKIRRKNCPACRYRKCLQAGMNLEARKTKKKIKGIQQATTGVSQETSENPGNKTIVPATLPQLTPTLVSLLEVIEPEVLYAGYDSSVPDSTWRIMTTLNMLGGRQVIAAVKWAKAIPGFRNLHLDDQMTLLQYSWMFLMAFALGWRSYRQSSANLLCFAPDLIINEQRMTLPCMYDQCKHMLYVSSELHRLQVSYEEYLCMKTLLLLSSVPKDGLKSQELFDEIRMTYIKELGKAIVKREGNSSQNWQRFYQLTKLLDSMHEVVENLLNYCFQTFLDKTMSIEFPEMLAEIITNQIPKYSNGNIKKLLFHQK

Some molecules with known AC50 results, for comparison:
* C[C@]12CC[C@H]3[C@@H](CCC4=CC(=O)CC[C@@]43C)[C@@H]1CC[C@@H]2O | 0.246 µM
* CCOC(=O)OC(C)OC1=C(C(=O)Nc2ccccn2)N(C)S(=O)(=O)c2ccccc21 (stereo not given) | > 30 µM

Value of measured AC50 for the entry O=C(NCCNCC(O)COc1ccc(O)cc1)N1CCOCC1 (stereo not given) : > 30 µM

Value of measured AC50 for the entry COc1ccccc1OCCNCC(O)c1ccc(C)c(S(N)(=O)=O)c1 (stereo not given) : > 30 µM

Value of measured AC50 for the entry C[C@H](N)[C@H](O)c1cccc(O)c1 : > 10 µM
